Would you mind telling me the reported IC50 of each entry?
# ASSAY SYSTEM: SQR (SDHC) of D024 SDHC3 KO mitochondria (Zymoseptoria tritici, UniProt F9X9V6+F9XH52+O42772)
# Sequence (F9XH52 44-187): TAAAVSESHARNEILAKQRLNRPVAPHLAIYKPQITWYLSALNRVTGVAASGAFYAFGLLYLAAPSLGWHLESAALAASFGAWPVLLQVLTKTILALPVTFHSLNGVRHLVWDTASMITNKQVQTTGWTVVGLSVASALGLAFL
# Sequence (O42772 19-297): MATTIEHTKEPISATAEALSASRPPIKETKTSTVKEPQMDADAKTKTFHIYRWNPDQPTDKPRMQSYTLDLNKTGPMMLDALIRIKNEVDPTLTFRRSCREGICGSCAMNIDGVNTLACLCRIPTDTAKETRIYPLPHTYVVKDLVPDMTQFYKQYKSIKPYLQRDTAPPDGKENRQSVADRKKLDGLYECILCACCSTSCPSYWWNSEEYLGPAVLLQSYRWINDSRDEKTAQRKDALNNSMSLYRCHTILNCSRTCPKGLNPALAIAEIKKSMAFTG
# Sequence (F9X9V6 1-193): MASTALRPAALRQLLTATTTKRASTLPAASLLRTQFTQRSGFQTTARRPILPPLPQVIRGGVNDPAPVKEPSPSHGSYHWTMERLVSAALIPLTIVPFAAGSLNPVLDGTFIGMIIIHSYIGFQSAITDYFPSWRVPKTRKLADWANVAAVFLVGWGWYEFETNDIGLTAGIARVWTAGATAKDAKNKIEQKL
# Sequence (F9WWR1 29-643 partner): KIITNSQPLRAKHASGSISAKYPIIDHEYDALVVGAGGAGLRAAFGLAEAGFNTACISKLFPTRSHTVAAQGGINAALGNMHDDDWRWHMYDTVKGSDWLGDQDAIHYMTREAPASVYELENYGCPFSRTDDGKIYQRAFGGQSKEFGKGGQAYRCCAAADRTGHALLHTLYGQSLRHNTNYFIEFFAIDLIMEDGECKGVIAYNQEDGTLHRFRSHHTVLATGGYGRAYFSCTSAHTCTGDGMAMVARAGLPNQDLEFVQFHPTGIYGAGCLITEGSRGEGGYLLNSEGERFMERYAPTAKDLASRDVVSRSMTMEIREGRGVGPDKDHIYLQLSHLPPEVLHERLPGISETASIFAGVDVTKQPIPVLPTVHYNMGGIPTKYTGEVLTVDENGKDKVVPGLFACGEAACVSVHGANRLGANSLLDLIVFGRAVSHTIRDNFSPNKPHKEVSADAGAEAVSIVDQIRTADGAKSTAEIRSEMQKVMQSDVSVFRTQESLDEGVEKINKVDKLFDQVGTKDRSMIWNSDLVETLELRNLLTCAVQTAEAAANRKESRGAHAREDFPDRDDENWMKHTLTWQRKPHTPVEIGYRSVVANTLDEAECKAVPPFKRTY
# ASSAY SUMMARY: Succinate-quinone (SQR) SDHI sensitivity assay on purified mitochondria, 06STD024 SDHC3 KO
# CONDITION DESCRIPTION: mitochondria of 06STD024 ZtSDHC3 deletion mutant; mean of three ± SD
One number for each entry, in nM.

// each compound listed below needs its IC50
1. Cn1cc(C(=O)Nc2ccccc2-c2cc(F)c(F)c(F)c2)c(C(F)F)n1
2. CON(C(=O)c1cn(C)nc1C(F)F)[C@@H](C)Cc1c(Cl)cc(Cl)cc1Cl
3. Cn1cc(C(=O)NCCc2ccc(Cl)cc2Cl)c(C(F)F)n1

A.
1: 3.3; 2: 0.3; 3: 79.4

---

# Test system: Zymoseptoria tritici field and genetically modified strains
# ASSAY SUMMARY: Liquid culture assay for fungicide sensitivity determination
# Assay type: cell-based
# CONDITION DESCRIPTION: Zymoseptoria tritici, read-out: EC50 (nM) Mean, strain pTet::SDHC3_I78A_T35; liquid culture sensitivity
# Description: Sensitivity towards commercial fungicides was determined for a set of 99 SHA-SDHI-naïve Z. tritici field isolates sampled in Europe between 2006 and 2009. The EC50 of these isolates was determined in liquid growth assays and the data obtained compared for each possible pair of SDHI fungicides (cross-resistance (XR) plots, Fig 1). […]
EC50 strictly less than 100 nM = rule met. Otherwise rule not met.

Example cases with answers are listed next.
                                   compound   label_class
0  CON(C(=O)c1cn(C)nc1C(F)F)[C@@H](C)Cc1c(Cl)cc(Cl)cc1Cl [Pydiflumetofen]      rule met
1  O=C(Nc1ccccc1-c1ccc(Cl)cc1)c1cccnc1Cl [Boscalid]  rule not met
2  O=C(NCCc1ncc(C(F)(F)F)cc1Cl)c1ccccc1C(F)(F)F [Fluopyram]  rule not met
3     CC1=C(C(=O)Nc2ccccc2)SCCO1 [Carboxin]  rule not met

Q. Input Cn1cc(C(=O)NCCc2ccc(Cl)cc2Cl)c(C(F)F)n1 [Compound 1] ; condition: EC50 strictly below 100 nM. Does it hold?
A. rule not met

---

# ASSAY SYSTEM: altC-SQR (altC) of D024 SDHC1 KO mitochondria (Zymoseptoria tritici, UniProt A0A1X7RQW2+F9X9V6+O42772)
# Sequence (A0A1X7RQW2 36-181, one chain of several): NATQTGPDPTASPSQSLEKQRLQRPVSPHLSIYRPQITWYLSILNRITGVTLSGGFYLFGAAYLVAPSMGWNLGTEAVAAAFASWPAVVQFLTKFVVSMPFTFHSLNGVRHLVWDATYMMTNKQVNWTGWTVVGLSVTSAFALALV
# ASSAY SUMMARY: Succinate-quinone (SQR) SDHI sensitivity assay on purified mitochondria, 06STD024 SDHC1 KO
# CONDITION DESCRIPTION: mitochondria of 06STD024 ZtSDHC1 deletion mutant (pure altC-SQR); mean of three ± SD
VALUE KIND: IC50 (nM)
Numbers only, in nM.

                                   molecule  reported_measurement
0  Cn1cc(C(=O)Nc2ccc(F)cc2-c2ccc(Cl)c(Cl)c2)c(C(F)F)n1                   2.1
1                CC1=C(C(=O)Nc2ccccc2)SCCO1                   865

Hi team, please reply with IC50 for each item in this list.
1. Cn1cc(C(=O)NCCc2ccc(Cl)cc2Cl)c(C(F)F)n1
2. CC(C)C1C2CCC1c1c(NC(=O)c3cn(C)nc3C(F)F)cccc12 (stereo not shown)
3. Cn1cc(C(=O)Nc2ccccc2-c2cc(F)c(F)c(F)c2)c(C(F)F)n1
4. Cn1cc(C(=O)Nc2cccc3c2[C@@H]2CC[C@H]3C2=C(Cl)Cl)c(C(F)F)n1 (racemic)

A.
[940, 2.4, 3.1, 0.6]

Parameter requested: IC50. Apply to each item below.
1. CC(C)CC(C)c1sccc1NC(=O)c1cn(C)nc1C(F)(F)F (stereo not shown)
2. O=C(Nc1ccccc1-c1ccc(Cl)cc1)c1cccnc1Cl
3. CON(C(=O)c1cn(C)nc1C(F)F)[C@@H](C)Cc1c(Cl)cc(Cl)cc1Cl
4. CON(C(=O)c1cn(C)nc1C(F)F)[C@@H](C)Cc1ccc(Cl)cc1Cl
5. C[C@@H](Cc1ccc(Cl)cc1Cl)NC(=O)c1cn(C)nc1C(F)F
6. O=C(NCCc1ncc(C(F)(F)F)cc1Cl)c1ccccc1C(F)(F)F

A.
1: 1.6; 2: 54.4; 3: 1.5; 4: 22.7; 5: 358; 6: 1160
